meta.source: PubChem BioAssay AID1159580

Assay: chemical genetic growth profiling, strain panel (AID 1159580);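 further: tested at 20 µM; growth read once vehicle control cultures reached saturation at 30 °C; 1 = growth at the plate median or of vehicle wells; lower values mean less growth of the strain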
Details: S. cerevisiae deletion strains, growth OD, locus YER015W, strain faa2, hits give low values
In all, about 5,500 compounds went through this assay and about 2,000 (36%) were called active. About 18% were inconclusive and are not listed. Some of the results follow.
measured_endpoint: normalized growth

>  <compound>
CCNc1nc(Cl)nc(NCC)n1

>  <experimental_value>
1

$$$$
>  <compound>
CC(=O)Oc1ccccc1C(=O)O

>  <experimental_value>
1.01

$$$$
>  <compound>
c1ccc([C@H]2CN3CCSC3=N2)cc1

>  <experimental_value>
1.01

$$$$
>  <compound>
CCN(CC)CCNC(=O)c1cc(Cl)c(N)cc1OC

>  <experimental_value>
0.979

$$$$
>  <compound>
COc1cc(-c2coc3cc(O[C@@H]4O[C@H](CO)[C@@H](O)[C@H](O)[C@H]4O)c(OC)c(O)c3c2=O)cc(O)c1OC

>  <experimental_value>
1

$$$$
>  <compound>
Cc1cc(=O)n(-c2ccccc2)n1C

>  <experimental_value>
0.985

$$$$
>  <compound>
CC(=O)[O][Hg][c]1ccccc1

>  <experimental_value>
0.0603

$$$$
>  <compound>
CC(NCCC(c1ccccc1)c1ccccc1)c1ccccc1 (stereo not drawn)

>  <experimental_value>
0.9

$$$$

---

Assay: chemical genetic growth profiling, strain panel (AID 1159580);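 further: tested at 20 µM; growth read once vehicle control cultures reached saturation at 30 °C; 1 = growth at the plate median or of vehicle wells; lower values mean less growth of the strain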
Conditions: S. cerevisiae deletion strains, growth OD, locus YDR137W, strain rgp1
About 2,000 (36%) of roughly 5,500 compounds were called active. About 18% were inconclusive and are not listed. Cut-off read from the data, not from the text of the source: active = normalized growth mostly below about 0.91 (no sharp cut-off); inconclusive = no clear call, values can overlap the other calls; inactive = mostly above about 0.92. The list shows a part of the results.
Possible outcomes: active, inactive

>  <compound>
CN(C)CCc1c[nH]c2ccc(C[C@H]3COC(=O)N3)cc12

>  <category>
inactive

$$$$
>  <compound>
COc1ccc(-c2oc3ccccc3c(=O)c2O)cc1OC

>  <category>
active

$$$$
>  <compound>
CCNc1nc(Cl)nc(NCC)n1

>  <category>
inactive

$$$$
>  <compound>
CC(=O)Oc1ccccc1C(=O)O

>  <category>
inactive

$$$$
>  <compound>
O=C(O)[C@H](O)[C@@](O)(Cc1ccc(O)cc1)C(=O)O

>  <category>
inactive

$$$$
>  <compound>
COC(=O)C[C@H]1C(C)(C)[C@@H](O)[C@@H]2CC3=C4C=C(OC)O[C@@H](c5ccoc5)[C@]4(C)CCC3[C@@]1(C)C2=O (stereo partly specified)

>  <category>
inactive

$$$$
>  <compound>
COc1ccc(C(=O)c2ccc(O)cc2)c(O)c1O

>  <category>
inactive

$$$$
>  <compound>
CC(=O)Oc1cccc2c1C(=O)c1c(OC(C)=O)cc(C(=O)O)cc1C2=O

>  <category>
inactive

$$$$
>  <compound>
CC(=O)NS(=O)(=O)c1ccc(NC(=O)c2ccccc2C(=O)O)cc1

>  <category>
inactive

$$$$
>  <compound>
CN1CCN(CCC=C2c3ccccc3Sc3ccc(S(=O)(=O)N(C)C)cc32)CC1

>  <category>
active

$$$$
>  <compound>
CNS(=O)(=O)c1ccc(NC(=O)c2ccccc2C(=O)O)cc1

>  <category>
inactive

$$$$

---

Assay: chemical genetic growth profiling, strain panel (AID 1159580);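 further: tested at 20 µM; growth read once vehicle control cultures reached saturation at 30 °C; 1 = growth at the plate median or of vehicle wells; lower values mean less growth of the strain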
Details: S. cerevisiae deletion strains, growth OD, locus YJL154C, strain vps35
In all, about 5,500 compounds went through this assay and about 2,000 (36%) were called active. Not shown: some 18% with an inconclusive outcome. Rule as the data show it: active = normalized growth mostly below about 0.91 (no sharp cut-off); inconclusive = no clear call, values can overlap the other calls; inactive = mostly above about 0.92. The list shows a part of the results.
Possible outcomes: 1 = active, -1 = inactive

>  <compound>
CC(=O)OCC(=O)[C@@]1(O)CCC2C3CCC4=CC(=O)CC[C@]4(C)C3[C@@H](O)C[C@@]21C (stereo partly specified)

>  <category>
-1

$$$$
>  <compound>
COc1cc2c(cc1OC)[C@@]13CCN4CC5=CCOC6CC(=O)N2C1[C@H]6[C@H]5C[C@H]43 (stereo partly specified)

>  <category>
-1

$$$$
>  <compound>
CN(C)CCc1c[nH]c2ccc(CS(=O)(=O)N3CCCC3)cc12

>  <category>
-1

$$$$
>  <compound>
COc1ccc(C(=O)c2ccc(O)cc2)c(O)c1O

>  <category>
-1

$$$$
>  <compound>
CC[C@H]1CN2CCc3cc(OC)c(OC)cc3C2C[C@@H]1CC1NCCc2cc(OC)c(OC)cc21 (stereo partly specified)

>  <category>
-1

$$$$
>  <compound>
COc1ccc(-c2oc3ccccc3c(=O)c2O)cc1OC

>  <category>
1

$$$$
>  <compound>
COc1ccc2c(=O)ccoc2c1

>  <category>
-1

$$$$
>  <compound>
NCCNCCNCCN

>  <category>
-1

$$$$
>  <compound>
COc1cc(NS(=O)(=O)c2ccc(N)cc2)ncn1

>  <category>
-1

$$$$
>  <compound>
CCCc1nc2c(C)cc(-c3nc4ccccc4n3C)cc2n1Cc1ccc(-c2ccccc2C(=O)O)cc1

>  <category>
-1

$$$$
>  <compound>
Cc1onc(-c2ccccc2Cl)c1C(=O)N[C@@H]1C(=O)N2[C@@H]1SC(C)(C)[C@@H]2C(=O)O

>  <category>
-1

$$$$
>  <compound>
COc1cc(O)cc(OC)c1OC

>  <category>
-1

$$$$
>  <compound>
Cc1cc(C(C)(C)C)c(O)c(C)c1CC1=NCCN1

>  <category>
-1

$$$$
>  <compound>
CNS(=O)(=O)c1ccc(NC(=O)c2ccccc2C(=O)O)cc1

>  <category>
-1

$$$$
>  <compound>
COC1(C)CCC2OC2(C)CCC2C1CC2(C)C (stereo unspecified)

>  <category>
-1

$$$$
>  <compound>
CC(=O)OCC(=O)[C@@]12OC3(CCCC3)O[C@@H]1CC1C3CCC4=CC(=O)C=C[C@]4(C)[C@@]3(F)[C@@H](O)C[C@@]12C (stereo partly specified)

>  <category>
-1

$$$$
>  <compound>
CN[C@@H]1[C@@H](O[C@H]2O[C@H](CO)[C@@H](N)[C@H](O)[C@H]2O)O[C@H]2C[C@@H](N)[C@H](O[C@H]3[C@H](O)[C@@H](O)[C@H](N)C[C@@H]3N)O[C@@H]2[C@@H]1O

>  <category>
-1

$$$$
>  <compound>
O=c1c(O)c(-c2ccc(O)c(O)c2)oc2cc(O)ccc12

>  <category>
-1

$$$$
>  <compound>
CC(=O)NS(=O)(=O)c1ccc(NC(=O)c2ccccc2C(=O)O)cc1

>  <category>
-1

$$$$
>  <compound>
CC(=O)OC[C@H]1O[C@@H](Oc2cc(OC(C)=O)c3c(=O)cc(-c4ccc(OC(C)=O)cc4)oc3c2)[C@H](OC(C)=O)[C@@H](OC(C)=O)[C@@H]1OC(C)=O

>  <category>
-1

$$$$
>  <compound>
CC1(C)S[C@@H]2[C@H](NC(=O)[C@H](C(=O)O)c3cccs3)C(=O)N2[C@H]1C(=O)O

>  <category>
-1

$$$$
>  <compound>
CN1C(=O)CCS(=O)(=O)C1c1ccc(Cl)cc1 (stereo unspecified)

>  <category>
-1

$$$$
>  <compound>
CC1=CC2C(C(C)C)CCC(C)(O)C2CC1 (stereo unspecified)

>  <category>
-1

$$$$
>  <compound>
O=C(CCBr)N1CCN(C(=O)CCBr)CC1

>  <category>
-1

$$$$
>  <compound>
COc1cc(-c2oc3cc(O)ccc3c(=O)c2O)ccc1O

>  <category>
-1

$$$$
>  <compound>
COc1cc(-c2coc3cc(O[C@@H]4O[C@H](CO)[C@@H](O)[C@H](O)[C@H]4O)c(OC)c(O)c3c2=O)cc(O)c1OC

>  <category>
-1

$$$$
>  <compound>
CCOc1ccc(NC(C)=O)cc1

>  <category>
-1

$$$$
>  <compound>
CN1CCN(CCCN2c3ccccc3Sc3ccc(C(F)(F)F)cc32)CC1

>  <category>
1

$$$$
>  <compound>
CC1(C)C(=O)[C@@H]2C[C@@]3(O)C4=CC(=O)O[C@@H](c5ccoc5)[C@]4(C)CCC3[C@@](C)(C2=O)[C@H]1CC(=O)O (stereo partly specified)

>  <category>
-1

$$$$
>  <compound>
CN1CCN(CC(=O)N2c3ccccc3C(=O)Nc3cccnc32)CC1

>  <category>
-1

$$$$
>  <compound>
COc1cnc(NS(=O)(=O)c2ccc(N)cc2)nc1

>  <category>
-1

$$$$
>  <compound>
CCCCc1nc(Cl)c(CO)n1Cc1ccc(-c2ccccc2-c2nn[nH]n2)cc1

>  <category>
-1

$$$$
>  <compound>
NC(=O)N1c2ccccc2C=Cc2ccccc21

>  <category>
-1

$$$$
>  <compound>
NCCc1cc(O)c(O)cc1O

>  <category>
-1

$$$$
>  <compound>
CNS(=O)(=O)Cc1ccc2[nH]cc(CCN(C)C)c2c1

>  <category>
-1

$$$$
>  <compound>
COc1c2ccoc2cc2oc(C)cc(=O)c12

>  <category>
-1

$$$$
